Reference source: patent US11976061B2

Molecular target: human DGAT2 (hDGAT2) (Homo sapiens, UniProt Q96PD7)
Construct: made in house; host or cells: Sf-9 insect cells (baculovirus), membrane fraction
Sequence (Q96PD7 1-388): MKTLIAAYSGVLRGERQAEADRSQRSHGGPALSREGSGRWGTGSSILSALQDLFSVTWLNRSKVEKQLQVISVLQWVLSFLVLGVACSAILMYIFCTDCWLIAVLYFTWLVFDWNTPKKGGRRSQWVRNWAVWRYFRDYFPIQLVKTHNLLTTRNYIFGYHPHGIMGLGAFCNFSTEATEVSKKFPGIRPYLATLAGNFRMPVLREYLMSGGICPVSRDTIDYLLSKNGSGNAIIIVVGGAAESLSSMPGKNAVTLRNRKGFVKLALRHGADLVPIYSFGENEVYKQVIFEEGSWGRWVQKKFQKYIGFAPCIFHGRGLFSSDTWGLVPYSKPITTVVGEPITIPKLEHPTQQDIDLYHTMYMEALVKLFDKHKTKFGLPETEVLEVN
Assay: DGAT2 Enzymatic Activity Assay
Assay type: biochemical
Conditions: membrane prep of Sf-9 cells expressing hDGAT2; 25 μM diolein, 5 μM 13C oleoyl-CoA; 13C18-triolein by LC/MS/MS; read-out: DGAT2 IC50
measurement_kind: IC50 (nM)
Your answer is read as nM, so omit the unit and give the number.

Examples with answers:
compound: CCOc1cc(-n2c(=O)n(C(C)C(C)(C)O)c3cc(C(=O)NC4(C)CCS(=O)(=O)CC4)ccc32)c(F)cn1 (single isomer, unassigned) [Example 69a]
measurement_kind: IC50
observed_result: 9.7

compound: CC(C)n1c(=O)n(-c2cccc(OC(F)(F)F)c2)c2ncc(C(=O)NC3(C)CS(=O)(=O)C3)cc21
measurement_kind: IC50
observed_result: 355

# ---- query compound ----
Just so you know, measured IC50 for CC(n1c(=O)n(-c2cccc(OC(F)(F)C(F)F)c2)c2ccc(C(=O)NC3(C)CCS(=O)(=O)CC3)cc21)C(C)(C)O (single isomer, unassigned) [Example 77a] came out at 5.6

###

Biological target: human DGAT2 (hDGAT2) (Homo sapiens, UniProt Q96PD7)
Construct: made in house; host or cells: Sf-9 insect cells (baculovirus), membrane fraction
Assay: DGAT2 Enzymatic Activity Assay
Type: biochemical
Details: membrane prep of Sf-9 cells expressing hDGAT2; 25 μM diolein, 5 μM 13C oleoyl-CoA; 13C18-triolein by LC/MS/MS; read-out: Human DGAT2 IC50
measurement_kind: log10(IC50) (log10 of the value in nM)
Units before log transform: nM; reported quantity: IC50; transform: log10.

molecule: CCOc1cccc(-n2c(=O)n(C(C)C)c3cc(C(=O)NC4(C)CS(=O)(=O)C4)ccc32)c1 [Example 9]
measurement_kind: log10(IC50)
observed_result: 0.63
--
molecule: C[C@@]1(NC(=O)c2ccc3c(c2)n(-c2ccc(F)cc2)c(=O)n3-c2cccc(OC(F)F)c2)CCS(=O)(=O)C1 [Example 3]
measurement_kind: log10(IC50)
observed_result: 0.38
--
molecule: CC(C)n1c(=O)n(-c2cccc(C3CC3(F)F)c2)c2ccc(C(=O)NC3(C)CS(=O)(=O)C3)cc21 (stereo not drawn) [Example 22]
measurement_kind: log10(IC50)
observed_result: 1.82
--
molecule: CC(C)n1c(=O)n(-c2cccc(OC(F)F)c2)c2cc(F)c(C(=O)NC3(C)CCS(=O)(=O)CC3)cc21 [Example 112]
measurement_kind: log10(IC50)
observed_result: 1.87
--
molecule: CC(C)n1c(=O)n(-c2cc(OC(F)F)ncc2F)c2cc(F)c(C(=O)NC3(C)CCS(=O)(=O)CC3)cc21 [Example 122]
measurement_kind: log10(IC50)
observed_result: 1.75
--
molecule: CC(C)n1c(=O)n(-c2cccc(OC(F)F)c2)c2ccc(C(=O)N[C@]3(C)CCS(=O)(=O)C3)cc21 [Example 23]
measurement_kind: log10(IC50)
observed_result: 1.80
--
molecule: CC(C(N)=O)n1c(=O)n(-c2cccc(OC(F)F)c2)c2ccc(C(=O)NC3(C)CCS(=O)(=O)CC3)cc21 (single isomer, unassigned) [EX-85a]
measurement_kind: log10(IC50)
observed_result: 2.74
--
molecule: CC(C)(O)Cn1c(=O)n(-c2cccc(OC(F)F)c2)c2ccc(C(=O)NC3(C)CS(=O)(=O)C3)cc21 [Example 64]
measurement_kind: log10(IC50)
observed_result: 1.55

Just so you know, measured log10(IC50) for CC1(NC(=O)c2ccc3c(c2)n(-c2ccc(F)cc2)c(=O)n3-c2cccc(OC(F)F)c2)CS(=O)(=O)C1 [Example 2] came out at 0.26

Just so you know, measured log10(IC50) for CC(C)n1c(=O)n(-c2cc(OC(F)F)ccn2)c2ccc(C(=O)NC3(C)CS(=O)(=O)C3)cc21 [Example 12] came out at 2.09

Just so you know, measured log10(IC50) for CC(C)n1c(=O)n(-c2cccc(OC(F)F)c2)c2ccc(C(=O)NC3(C)CCS(=O)(=O)CC3)c(C#N)c21 [Example 129] came out at 2.39

Just so you know, measured log10(IC50) for CC1(NC(=O)c2cnc3c(c2)n(-c2ccc(F)cc2)c(=O)n3-c2cccc(OC(F)F)c2)CS(=O)(=O)C1 [Example 4] came out at 0.93

Just so you know, measured log10(IC50) for CC(C)n1c(=O)n(-c2cncc(C3CC3)c2)c2ccc(C(=O)NC3(C)CS(=O)(=O)C3)cc21 [Example 84] came out at 1.85

Just so you know, measured log10(IC50) for CC(C(N)=O)n1c(=O)n(-c2cccc(OC(F)F)c2)c2ccc(C(=O)NC3(C)CCS(=O)(=O)CC3)cc21 (single isomer, unassigned) [EX-85b] came out at 3.24
